# experimental.system: CFTR-mediated chloride transport (Homo sapiens)
# Sequence (P13569 whole entry, looked up): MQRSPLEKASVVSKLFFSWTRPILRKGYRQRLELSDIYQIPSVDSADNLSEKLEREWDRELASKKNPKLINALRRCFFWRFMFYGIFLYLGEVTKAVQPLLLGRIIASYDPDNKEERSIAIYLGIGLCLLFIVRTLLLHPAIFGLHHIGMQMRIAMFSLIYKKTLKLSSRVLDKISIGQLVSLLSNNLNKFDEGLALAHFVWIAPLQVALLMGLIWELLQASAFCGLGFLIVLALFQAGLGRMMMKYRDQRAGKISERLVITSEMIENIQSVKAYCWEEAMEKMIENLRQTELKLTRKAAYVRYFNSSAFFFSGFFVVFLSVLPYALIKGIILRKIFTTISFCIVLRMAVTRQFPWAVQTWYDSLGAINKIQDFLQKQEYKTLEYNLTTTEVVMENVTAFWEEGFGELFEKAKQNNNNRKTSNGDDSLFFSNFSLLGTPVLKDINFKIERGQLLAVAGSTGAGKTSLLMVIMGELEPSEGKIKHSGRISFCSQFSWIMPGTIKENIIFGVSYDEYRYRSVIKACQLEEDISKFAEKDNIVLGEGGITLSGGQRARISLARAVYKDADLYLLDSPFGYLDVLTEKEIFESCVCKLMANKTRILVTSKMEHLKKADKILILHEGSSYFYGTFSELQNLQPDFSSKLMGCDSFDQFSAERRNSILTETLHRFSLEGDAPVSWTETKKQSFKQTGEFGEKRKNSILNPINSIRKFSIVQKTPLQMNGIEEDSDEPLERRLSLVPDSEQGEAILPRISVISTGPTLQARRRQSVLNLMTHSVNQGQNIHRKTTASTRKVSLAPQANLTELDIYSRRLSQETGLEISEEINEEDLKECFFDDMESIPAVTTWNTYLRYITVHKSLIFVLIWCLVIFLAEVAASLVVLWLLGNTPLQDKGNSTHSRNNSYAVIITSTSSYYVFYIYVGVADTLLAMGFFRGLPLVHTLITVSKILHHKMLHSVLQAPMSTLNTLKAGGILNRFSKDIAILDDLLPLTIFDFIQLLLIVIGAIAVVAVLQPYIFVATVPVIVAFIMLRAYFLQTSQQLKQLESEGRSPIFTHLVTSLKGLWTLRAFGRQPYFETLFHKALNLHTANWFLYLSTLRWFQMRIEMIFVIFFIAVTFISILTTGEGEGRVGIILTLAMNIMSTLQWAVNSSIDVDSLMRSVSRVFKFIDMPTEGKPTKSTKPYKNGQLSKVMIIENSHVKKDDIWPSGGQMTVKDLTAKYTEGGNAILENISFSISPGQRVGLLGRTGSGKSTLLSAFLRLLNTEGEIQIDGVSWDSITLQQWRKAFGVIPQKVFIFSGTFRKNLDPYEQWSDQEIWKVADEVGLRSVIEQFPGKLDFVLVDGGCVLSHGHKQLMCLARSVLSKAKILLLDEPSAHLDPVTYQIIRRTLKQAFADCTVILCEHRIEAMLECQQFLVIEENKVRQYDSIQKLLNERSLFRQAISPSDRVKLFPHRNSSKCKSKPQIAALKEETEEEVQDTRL
# Type: cell-based
# condition.description: enteroid cells incubated with test compound 18-24 hours; acute 10 μM forskolin and 300 nM Compound III; % of chloride transport with 3 μM Compound A, 3 μM Compound II and 300 nM acute Compound III triple combination control
# Method: Base medium (ADF+++) consisted of Advanced DMEM/Ham's F12, 2 mM Glutamax, 10 mM HEPES, […] penicillin/streptomycin. […] Enteroid cells were incubated with test compound in IEMM for 18-24 hours at 37° C., 95% humidity and 5% CO2. […] Chloride transport was initiated by addition of Chloride Free Dye Stimulation Solution and the fluorescence signal was read for 15 min. […]
value.kind: Max. Activity

compound	Max. Activity
CC1(C)CC2CCCNc3cccc(n3)S(=O)(=O)NC(=O)c3ccc(-n4ccc(OCCC5(C(F)(F)F)CC5)n4)nc3N1C2 (racemic) [Compound 12]	+++ (+++ is >60%)
CC1(C)C[C@H]2CCCCOc3ccc(cn3)S(=O)(=O)NC(=O)c3ccc(-n4ccc(OCCC5(C(F)(F)F)CC5)n4)nc3N1C2 (single isomer, unassigned) [Compound 104]	+ (+ is <30%)
CC1(C)C[C@H]2CCCCOc3ccc(cc3)S(=O)(=O)NC(=O)c3ccc(-n4ccc(OCCC5(C(F)(F)F)CC5)n4)nc3N1C2 (single isomer, unassigned) [Compound 96]	+ (+ is <30%)
CC1(C)C[C@H]2CCCn3ccc(n3)S(=O)(=O)NC(=O)c3ccc(-n4ccc(OCCC5(C(F)(F)F)CC5)n4)nc3N1C2 [Compound 84]	+ (+ is <30%)
CC1(C)C[C@H]2CCCCNc3cccc(n3)S(=O)(=O)NC(=O)c3ccc(-n4ccc(OCCC5(C(F)(F)F)CC5)n4)nc3N1C2 (single isomer, unassigned) [Compound 29]	++ (++ is 30-60%)
CC(C)(C)CCO[C@H]1CCN(c2ccc3c(n2)N2C[C@@H](CCCNc4cccc(n4)S(=O)(=O)NC3=O)CC2(C)C)C1=O (single isomer, unassigned) [Compound 170]	++ (++ is 30-60%)
CC1(C)C[C@H]2C[C@@H](F)CNc3cccc(n3)S(=O)(=O)NC(=O)c3ccc(-n4ccc(OCCC5C6(CC6)C56CC6)n4)nc3N1C2 (single isomer, unassigned) [Compound 308]	+ (+ is <30%)
[2H]C1(CCOc2ccn(-c3ccc4c(n3)N3C[C@@H](CCCNc5cccc(n5)S(=O)(=O)NC4=O)CC3(C)C)n2)C2(CC2)C12CC2 [Compound 253]	+++ (+++ is >60%)
CC1(C)C[C@@H]2CCCNc3cccc(n3)S(=O)(=O)NC(=O)c3ccc(-n4ccc(OCCC5C6(CC6)C56CC6)n4)nc3N1C2 [Compound 195]	+++ (+++ is >60%)
Cc1nn2cc1S(=O)(=O)NC(=O)c1ccc(-n3ccc(OCCC4(C(F)(F)F)CC4)n3)nc1N1C[C@H](CCCC2)CC1(C)C (single isomer, unassigned) [Compound 92]	++ (++ is 30-60%)

State Max. Activity on CFTR-mediated chloride transport (Homo sapiens). Entry: CC1(C)C[C@H]2CCn3ccc(n3)S(=O)(=O)NC(=O)c3ccc(-n4ccc(OCCCC5(C(F)(F)F)CC5)n4)nc3N1C2 (single isomer, unassigned) [Compound 278]
+ (+ is <30%)

Using CFTR-mediated chloride transport (Homo sapiens) as the test system, report measured Max. Activity of CC1CCC2CN(c3nc(N4CCN(CCC(C)(C)C)C4=O)ccc3C(=O)NS(=O)(=O)c3cccc(n3)N1)C(C)(C)C2 (centres unmarked) [Compound 210] .
++ (++ is 30-60%)

Please respond with reported Max. Activity (system CFTR-mediated chloride transport (Homo sapiens)) for Cc1ccc2nc1NCCC[C@H]1CN(c3nc(-n4ccc(OCCC5(C(F)(F)F)CC5)n4)ccc3C(=O)NS2(=O)=O)C(C)(C)C1 (single isomer, unassigned) [Compound 114] .
+ (+ is <30%)

Return reported Max. Activity for target or system CFTR-mediated chloride transport (Homo sapiens), item CC1(C)C[C@@H]2CN1c1nc(-n3ccc(OCCCC4(C(F)(F)F)CC4)n3)ccc1C(=O)NS(=O)(=O)c1cccc(n1)NCCO2 (single isomer, unassigned) [Compound 160] .
+++ (+++ is >60%)

Find Max. Activity for CC1(C)C[C@H]2CCCNc3cccc(n3)S(=O)(=O)NC(=O)c3ccc(-n4ccc(OCC5C6(CC6)C56CC6)n4)nc3N1C2 (single isomer, unassigned) [Compound 107] on CFTR-mediated chloride transport (Homo sapiens) and write it down.
+++ (+++ is >60%)

Give measured Max. Activity for CC1(C)C[C@@H]2CCCn3ccc(n3)S(=O)(=O)NC(=O)c3ccc(-n4ccc(OCCC(C)(C)C(F)(F)F)n4)nc3N1C2 [Compound 221] (CFTR-mediated chloride transport (Homo sapiens)).
+++ (+++ is >60%)

Quote Max. Activity with test system CFTR-mediated chloride transport (Homo sapiens) for Cc1cn2nc1S(=O)(=O)NC(=O)c1ccc(-n3ccc(OCCC(C4CC4)C4CC4)n3)nc1N1C[C@H](CCC2)CC1(C)C (single isomer, unassigned) [Compound 201]
+ (+ is <30%)

Data provenance: patent US11866450B2
